Test system: Proteus mirabilis IXM OM-19
Test Description: MIC against bacteria (Table I), strain (3)
Format: cell-based
Condition Parameters: IXMOM19; (3) Proteus mirabilis IXM OM-19; read-out: MIC
Value Kind: MIC (µg/mL)
One number for each entry, in µg/mL.

O=C(O)CSc1cc(SCC2=C(C(=O)O)N3C(=O)[C@@H](NC(=O)[C@H](NC(=O)c4cnccc4O)c4ccccc4)[C@H]3SC2)ncn1 ... 0.19
Cc1nc(SCC2=C(C(=O)O)N3C(=O)[C@@H](NC(=O)[C@H](NC(=O)c4cnccc4O)c4ccccc4)[C@H]3SC2)sc1CC(=O)O ... 0.19
O=C(O)C1=C(CSc2nnc(SCCS(=O)(=O)O)s2)CS[C@@H]2[C@H](NC(=O)[C@H](NC(=O)c3cnccc3O)c3ccccc3)C(=O)N12 ... 0.39
Cc1nc(SCC2=C(C(=O)O)N3C(=O)[C@@H](NC(=O)[C@H](NC(=O)c4cnccc4O)c4ccccc4)[C@H]3SC2)sc1C(=O)O ... 0.19
Nn1c(SCC(=O)O)nnc1SCC1=C(C(=O)O)N2C(=O)[C@@H](NC(=O)[C@H](NC(=O)c3cnccc3O)c3ccccc3)[C@H]2SC1 ... 0.78

Batch request: MIC for each of the following compounds.
1. Cc1nc(SCC2=C(C(=O)O)N3C(=O)[C@@H](NC(=O)[C@H](NC(=O)c4cnccc4O)c4ccccc4)[C@H]3SC2)sc1SCC(=O)O
2. Cc1cc(O)c(C(=O)N[C@@H](C(=O)N[C@@H]2C(=O)N3C(C(=O)O)=C(CSc4nnc(SCC(=O)O)s4)CS[C@H]23)c2ccccc2)cn1
3. O=C(O)CSc1nnc(SCC2=C(C(=O)O)N3C(=O)[C@@H](NC(=O)[C@H](NC(=O)c4cnccc4O)c4ccccc4)[C@H]3SC2)s1
4. O=C(O)CSc1nnc(SCC2=C(C(=O)O)N3C(=O)[C@@H](NC(=O)[C@H](NC(=O)c4cnccc4O)c4ccc(O)cc4)[C@H]3SC2)s1

a:
1. 0.19
2. 0.78
3. 0.39
4. 0.39

====

Test system: Bacillus subtilis ATCC 6633
Test Description: MIC against bacteria (Table I), strain (14)
Format: cell-based
Condition Parameters: Bacillus subtilis, ATCC6633
Value Kind: MIC (µg/mL)
Give bare numbers, in µg/mL.

Cc1cc(O)c(C(=O)N[C@@H](C(=O)N[C@@H]2C(=O)N3C(C(=O)O)=C(CSc4nnc(CCCC(=O)O)s4)CS[C@H]23)c2ccccc2)cn1 [Example 36] ... 1.56
Cc1cncc(C(=O)N[C@@H](C(=O)N[C@@H]2C(=O)N3C(C(=O)O)=C(CSc4nnc(SCC(=O)O)s4)CS[C@H]23)c2ccccc2)c1O [Example 27] ... 0.78
Cc1cc(O)c(C(=O)N[C@@H](C(=O)N[C@@H]2C(=O)N3C(C(=O)O)=C(CSc4nnc(CC(=O)O)s4)CS[C@H]23)c2ccccc2)cn1 [Example 38] ... 1.56
CC1=C(C(=O)O)N2C(=O)[C@@H](NC(=O)[C@H](N)c3ccccc3)[C@H]2SC1 [Cephalexin, reference compound] ... 0.78
O=C(O)Cc1nnc(SCC2=C(C(=O)O)N3C(=O)[C@@H](NC(=O)[C@H](NC(=O)c4csccc4=O)c4ccc(O)cc4)[C@H]3SC2)s1 [Example 32] ... 0.78

Consider the record given below.
q: What does the data say about its MIC? Entry: CSc1ccc2c(=O)c(C(=O)N[C@@H](C(=O)N[C@@H]3C(=O)N4C(C(=O)O)=C(CSc5nnc(SCC(=O)O)s5)CS[C@H]34)c3ccccc3)c[nH]c2c1 [Example 12]
a: 3.13

Where these numbers come from: patent US4068074A
